molecular target: HIV-1 Env of pseudovirus RHPA4259.7 (HIV-1); assay: cell-based or functional assay
metric: neutralization IC50 (µg/mL)
Quick reminder: number only, in µg/mL, skip the unit.

Reference set, count: 2
MS-92 (antibody, V domains shown) VH: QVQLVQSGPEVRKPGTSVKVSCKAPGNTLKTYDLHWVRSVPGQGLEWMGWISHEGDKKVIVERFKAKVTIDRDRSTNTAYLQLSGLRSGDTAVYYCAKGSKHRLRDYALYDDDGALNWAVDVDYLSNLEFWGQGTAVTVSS VL: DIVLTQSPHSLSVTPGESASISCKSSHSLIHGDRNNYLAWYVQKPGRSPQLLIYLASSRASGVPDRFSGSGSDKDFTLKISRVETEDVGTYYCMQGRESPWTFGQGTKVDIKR; 0.25
MS-80 (antibody, V domains shown) VH: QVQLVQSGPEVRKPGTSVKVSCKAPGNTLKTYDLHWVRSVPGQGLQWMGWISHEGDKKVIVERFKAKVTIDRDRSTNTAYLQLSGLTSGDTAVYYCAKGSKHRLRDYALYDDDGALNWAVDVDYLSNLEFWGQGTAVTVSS VL: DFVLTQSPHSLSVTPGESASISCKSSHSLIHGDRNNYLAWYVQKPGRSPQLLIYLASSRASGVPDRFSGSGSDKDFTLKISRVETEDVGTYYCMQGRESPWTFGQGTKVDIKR; 0.267

Now consider the entry below.
Request: Consider the binder MS-79 (antibody, V domains shown) VH: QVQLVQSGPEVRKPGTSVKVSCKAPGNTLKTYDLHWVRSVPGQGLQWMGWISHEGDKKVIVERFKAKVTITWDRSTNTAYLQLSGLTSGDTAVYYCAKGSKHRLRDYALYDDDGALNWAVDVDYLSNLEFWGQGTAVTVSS VL: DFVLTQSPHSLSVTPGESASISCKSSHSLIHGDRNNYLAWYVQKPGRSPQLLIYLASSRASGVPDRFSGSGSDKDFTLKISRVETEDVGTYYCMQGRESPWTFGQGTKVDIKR . State its measured neutralization IC50.
Response: 0.221
